Please provide measured melting point for the entries that follow.

Problem: Need melting point of `COc1cccc(C(F)(F)F)c1C(N)=O` , thanks.
Solution: 178 to 181 °C

Problem: Need melting point of `Cc1nc(N2CCN(CCCC(F)(F)F)C2=O)sc1C(=O)NCc1ccncc1` , thanks.
Solution: 178 to 181 °C

Problem: Need melting point of `CCCCCCCC/C=C\CCCCCCCC1=C(O)C(=O)C=C(OC)C1=O` , thanks.
Solution: 69.5 to 70.5 °C

Problem: Need melting point of `O=C(CCCC12CCC(=O)N1C(=O)CC2)OCc1ccccc1` , thanks.
Solution: 102 to 105 °C

Problem: Need melting point of `COc1ccc(-c2cnc(-c3ccncc3)o2)cc1` , thanks.
Solution: 105 to 107 °C

Problem: Need melting point of `CCCNC1=NS(=O)(=O)c2c(sc(C)c2C#N)N1` , thanks.
Solution: 293 to 298 °C

Problem: Need melting point of CC12CC(O)C3=C4CCC(=O)C=C4CCC3C1C(O)CC2=O (stereo not drawn) , thanks.
Solution: 146 °C

Problem: Need melting point of `Oc1c2c(nn1-c1nc3ccc(F)cc3s1)CCc1ccccc1-2` , thanks.
Solution: 246 to 247 °C

Problem: Need melting point of `C#CCCCOc1c(C)cc(C(=O)O)cc1C` , thanks.
Solution: 129 to 130 °C

Problem: Need melting point of `CCCCC1=NSc2ccccc2N1Cc1ccc(-c2ccccc2C(=O)O)cc1` , thanks.
Solution: 215 to 217 °C

Problem: Need melting point of `CCOc1cc(OCCO)cc2c1C(=O)N(COC(=O)c1c(Cl)cccc1Cl)S2(=O)=O` , thanks.
Solution: 166 °C

Problem: Need melting point of `CC(=O)OCCCCCC(=O)CC(=O)c1ccccc1` , thanks.
Solution: 23 to 24 °C

Problem: Need melting point of `Cc1cc(-c2cnn3c(C(F)(F)F)cc(-c4ccc(Cl)c(Cl)c4)nc23)ccn1` , thanks.
Solution: 275 °C

Problem: Need melting point of CC(=O)c1cccc(NC(=O)c2ccc3c(c2)CC(CSCc2ccccc2)O3)c1O (stereo not drawn) , thanks.
Solution: 119 to 121 °C

Problem: Need melting point of CC(n1cncn1)C(O)(Cn1cncn1)c1ccc(F)cc1 (stereo not drawn) , thanks.
Solution: 103 to 106 °C

Problem: Need melting point of `COC(=O)c1nc2cc(Cl)ccc2c(O)c1C(=O)OC` , thanks.
Solution: 232 to 233 °C

Problem: Need melting point of `Nc1ccc(SCc2cnc3ccccn23)cc1` , thanks.
Solution: 119 to 121 °C

Problem: Need melting point of `Cc1cc(-c2ccc(Cl)cc2)cnc1N` , thanks.
Solution: 156 °C

Problem: Need melting point of `N#Cc1ccc(Nc2nc(Oc3c(Br)cc(C=O)cc3Br)ccc2[N+](=O)[O-])cc1` , thanks.
Solution: 218 to 220 °C

Problem: Need melting point of `O=C(NC/C=C/c1ccccc1)c1ccc(OC(F)(F)F)cc1` , thanks.
Solution: 136 °C

Problem: Need melting point of `CN(CCCCCCCNC(=O)NCCCOc1cccc(CN2CCCCC2)c1)CCN(Cc1ccc(F)cc1)c1ccccn1` , thanks.
Solution: 112 °C

Problem: Need melting point of CC1NC(=O)c2ccccc2O1 (stereo not drawn) , thanks.
Solution: 124 to 126 °C

Problem: Need melting point of `O=c1[nH]c2cc(Cl)ccc2n1CCCO` , thanks.
Solution: 149 °C

Problem: Need melting point of `O=C1CSCc2nc(-c3ccccc3)ccc21` , thanks.
Solution: 78 to 81 °C

Problem: Need melting point of `Cc1cccc(C(=O)Nc2ccc(C(=O)N3Cc4ccccc4Cc4ccccc43)cc2)c1C` , thanks.
Solution: 138 to 142 °C

Problem: Need melting point of `Cc1c(C#Cc2ccc(C(F)(F)F)cc2)ccc(N)c1C#N` , thanks.
Solution: 136 to 138 °C

Problem: Need melting point of `COc1cc(C(=O)O)ccc1OCCCCl` , thanks.
Solution: 154 to 156 °C

Problem: Need melting point of `O=P(O)(O)COc1c(Br)cc(-c2c3ccccc3c(Br)c3sc4ccccc4c23)cc1Br` , thanks.
Solution: 334 to 335 °C

Problem: Need melting point of `CCCn1c(-c2ccc(-n3ccnc3)cc2)cnc1[C@H](Cc1ccccn1)N(C=O)c1cc2cc(Cl)ccc2o1` , thanks.
Solution: 173 to 175 °C

Problem: Need melting point of `CC1(C)CC(=O)C2=C(C1)NC1=C(C(=O)CC(C)(C)C1)C2c1c(F)cc(F)cc1F` , thanks.
Solution: > 300 °C

Problem: Need melting point of `N#CC=C(Cc1ccc2c(c1)OCO2)Nc1ccccc1` , thanks.
Solution: 150 to 151 °C

Problem: Need melting point of `Cc1oc(-c2ccccc2)nc1COc1cncc(COc2ccccc2CC(=O)O)c1` , thanks.
Solution: 207 to 208 °C

Problem: Need melting point of `CNCc1cc(C(=O)c2cccs2)cc(C(C)(C)C)c1O` , thanks.
Solution: 128 to 129 °C

The measurements presented in this section are drawn from a melting point compilation (Tetko et al.; mined from patent text by program, amines drawn as free bases though some values may be those of a salt).
